assay: qHTS assay to identify small molecule antagonists of the androgen receptor (AR) signaling pathway using the MDA cell line in the presence of 0.5 nM R1881 - cell viability counter screen (AID 1259242); conditions: MDA-kb2 viability, CellTiter-Fluor protease fluorescence, 16 h; series mostly up to 92.4 µM; further: nearly all actives have a fitted effect of over 45% in size
Records with an inconclusive call do not appear. Calls of active or inactive are those of the source. The call rests on the fitted dose curve; in most records, active means well fitted cell-killing curve with a large enough effect in the repeat runs; inconclusive means weak or mixed curves, or effect the other way; inactive means flat fitted curve, though single readings scatter.
Pick one: label 1 = active, label 0 = inactive

Hey, what did the test say about ClC(Cl)C(Cl)(Cl)Cl ?
label 0

Hey, what did the test say about Cc1ccc(C)c2ccccc12 ?
label 0

Hey, what did the test say about CC(C)C(Br)C(=O)NC(N)=O (stereo unspecified) ?
label 0

Hey, what did the test say about CC(Cc1ccc2c(c1)OCO2)NO (stereo unspecified) ?
label 0

Hey, what did the test say about Clc1ccc(C(Cl)(Cl)Cl)cc1Cl ?
label 0

Hey, what did the test say about COP(=S)(OC)Oc1nc(Cl)c(Cl)cc1Cl ?
label 0

Hey, what did the test say about [F][Sn]([c]1ccccc1)([c]1ccccc1)[c]1ccccc1 ?
label 1

Hey, what did the test say about CCC1(CC)C(=O)N=C(O)NC1=O ?
label 0

Hey, what did the test say about O=c1c2ccccc2c(=O)c2c1cc(Cl)c1[nH]c3c([nH]c12)c(Cl)cc1c(=O)c2ccccc2c(=O)c13 ?
label 0

Hey, what did the test say about CSC(=O)c1c(C(F)F)nc(C(F)(F)F)c(C(=O)SC)c1CC(C)C ?
label 0

Hey, what did the test say about CCCCCCCc1ccc(O)cc1 ?
label 0

Hey, what did the test say about O=[N+]([O-])c1cccc2cccc([N+](=O)[O-])c12 ?
label 0

Hey, what did the test say about CN1[C@@H]2CC[C@H]1CC(O)C2 (stereo partly specified) ?
label 0

Hey, what did the test say about CC[C@]1(O)CC[C@H]2[C@@H]3CCC4=CCCC[C@@H]4[C@H]3CC[C@@]21C ?
label 0

Hey, what did the test say about Oc1cccc(Cl)c1Cl ?
label 0

Hey, what did the test say about CSSC ?
label 0

Hey, what did the test say about CC(=O)C(Cl)C(=O)N(C)C (stereo unspecified) ?
label 0

Hey, what did the test say about COP(=O)(OC)Oc1ccc([N+](=O)[O-])cc1 ?
label 0

Hey, what did the test say about CC(C)NCC(O)c1ccccc1Cl (stereo unspecified) ?
label 0

Hey, what did the test say about N#CSCc1ccccc1 ?
label 0

Hey, what did the test say about COC(=O)N(OC)c1ccccc1COc1ccn(-c2ccc(Cl)cc2)n1 ?
label 1

Hey, what did the test say about ClC1=C(Cl)[C@]2(Cl)[C@H]3[C@H]([C@@H]4C=C[C@H]3C4)[C@@]1(Cl)C2(Cl)Cl ?
label 0

Hey, what did the test say about C=CC(=O)[O][Sn]([CH2]CCC)([CH2]CCC)[CH2]CCC ?
label 1

Hey, what did the test say about Cc1cc(C2CC2)nc(Nc2ccccc2)n1 ?
label 0

Hey, what did the test say about Oc1ccc(Cl)c(Cl)c1 ?
label 0

Hey, what did the test say about O=NN(CCO)CCO ?
label 0

Hey, what did the test say about [Cl-].[Cl-].[Cl-].[Yb+3] ?
label 0

Hey, what did the test say about CC(C)Br ?
label 0

Hey, what did the test say about N#Cc1sc2c(=O)c3ccccc3c(=O)c=2sc1C#N ?
label 1

Hey, what did the test say about CO/N=C(/C1=NOCCO1)c1ccccc1Oc1ncnc(Oc2ccccc2Cl)c1F ?
label 1

Hey, what did the test say about CC[C@H](C)[C@H]1O[C@]2(C=C[C@@H]1C)C[C@@H]1C[C@@H](C/C=C(\C)[C@@H](O[C@H]3C[C@H](OC)[C@@H](O[C@H]4C[C@H](OC)[C@@H](NC)[C@H](C)O4)[C@H](C)O3)[C@@H](C)/C=C/C=C3\CO[C@@H]4[C@H](O)C(C)=C[C@@H](C(=O)O1)[C@]34O)O2 ?
label 1

Hey, what did the test say about CCOP(=O)(OCC)Oc1cc(C)nc(C(C)C)n1 ?
label 0

Hey, what did the test say about [O]=[Cr][O][Cr]=[O] ?
label 0

Hey, what did the test say about C[C@]12C/C(=C/O)C(=O)C[C@@H]1CC[C@@H]1[C@@H]2CC[C@@]2(C)[C@H]1CC[C@]2(C)O ?
label 0

Hey, what did the test say about c1ccc2c(c1)cc1ccc3cccc4ccc2c1c34 ?
label 0

Hey, what did the test say about O=[N+]([O-])[O-].[Tl+] ?
label 0

Hey, what did the test say about CCCCC(CC)COC(=O)c1ccccc1C(=O)OCC(CC)CCCC (stereo unspecified) ?
label 0

Hey, what did the test say about CCOP(=S)(OCC)SC(CCl)N1C(=O)c2ccccc2C1=O (stereo unspecified) ?
label 0

Hey, what did the test say about CCOC(=O)CCN(SN(C)C(=O)Oc1cccc2c1OC(C)(C)C2)C(C)C ?
label 0

Hey, what did the test say about O=C(NC(=O)c1ccccc1Cl)Nc1ccc(OC(F)(F)F)cc1 ?
label 0

Hey, what did the test say about Clc1ccc(C(c2ccc(Cl)cc2)C(Cl)Cl)cc1 ?
label 0

Hey, what did the test say about CCOP(=O)(OCC)Oc1nc(Cl)c(Cl)cc1Cl ?
label 0

Hey, what did the test say about [C-]1=CC=CC1.[Cl][Zr+2][Cl].c1cc[cH-]c1 ?
label 0

Hey, what did the test say about C#CCO ?
label 0

Hey, what did the test say about CCNc1nc(NC(C)C(C)C)nc(SC)n1 (stereo unspecified) ?
label 0

Hey, what did the test say about Cc1ccn2nc(S(=O)(=O)Nc3c(F)cccc3F)nc2n1 ?
label 0

Hey, what did the test say about O=S1OCC2C(CO1)C1(Cl)C(Cl)=C(Cl)C2(Cl)C1(Cl)Cl (stereo unspecified) ?
label 0

Hey, what did the test say about COC(=O)/C=C(\C)OP(=O)(OC)OC ?
label 0

Hey, what did the test say about c1cc[n+]2c(c1)-c1cccc[n+]1CC2 ?
label 0

Hey, what did the test say about Cc1ccc2cc3c(ccc4ccccc43)c3c2c1CC3 ?
label 0

Hey, what did the test say about CCCCN(CCCC)C(=S)S ?
label 0
